From: PubChem BioAssay (NCI)

Tested on: SNB-75 CNS
Experiment: NCI-60 one-dose screen, 48 h
Settings: 10 µM unless noted
This is part of a sample that, as a whole, favours compounds with a hit. Of some 83,000 tested, about 20% had one in any assay. The source made the active and inactive calls. Rule for the calls: active = growth percent below 10; inactive = the rest.
Use one of these outcomes when replying: active, inactive

Solved cases below.
CN(C)CCCOc1ccc2c(c1)CN(C(=O)c1cc(C(=O)N3Cc4cccc(F)c4C3)ccc1O)C2
inactive
CN(Cc1ccccc1)S(=O)(=O)/N=C1\NC(=O)NC1=C(Cl)Cl
inactive

Ask | What did the test return for Oc1[nH]c2ccccc2c1Nn1c(N=N/C=c2/ccc3c(c2)C=NN=3)n[nH]c1=S ?
Reply | inactive

Ask | Tell me the recorded outcome of this test for COCCNc1ccc2ncc(C#Cc3cncc(C(=O)Nc4ccc(CN5CCN(C)CC5)c(C(F)(F)F)c4)c3)n2n1 .
Reply | active

Ask | // return assay outcome for COc1ccc(Cn2cc3c(c2-c2cc(OC)c(OC)c(OC)c2)CCc2c(CN4CCCC4)noc2-3)cc1
Reply | active

Ask | Entry COc1ccc(OC)c(-c2nc(SCC(=O)c3ccc(Br)cc3)nc(Nc3ccc(S(N)(=O)=O)cc3)c2C#N)c1 : call = ?
Reply | inactive
